molecular target: N-terminal HiBiT tagged BCL6 (Homo sapiens, UniProt P41182); construct: expressed in transfected cells; host or cells: HT1080 (ATCC CCL-121), stably transduced with lentivirus pLV-UBC-N-HiBiT-BCL6-PGK-puro; test: HiBiT based degradation assay; assay type: cell-based; settings: HT1080 cells expressing N-terminal HiBiT tagged BCL6; 5 hours of incubation; BCL6 degradation normalized with DMSO control
observation type: Ymin (5 hr)

Look over these answered cases.
- molecule: "CNC(=O)COc1cc2cc(Nc3nc(N4CCN(CC5CCN(c6cccc7c(C8CCC(=O)NC8=O)nn(C)c67)CC5)C(C)(C)C4)ncc3Cl)cnc2n(C(C)C)c1=O (stereo not drawn)"
  Ymin (5 hr): "+++ (30% ≤ Ymin < 50%)"
- molecule: "CNC(=O)COc1cc2cc(Nc3nc(N4CCN(CC5CCN(c6cccc7c(C8CCC(=O)NC8=O)nn(C)c67)CC5)C[C@H]4C)ncc3Cl)cnc2n(C(C)C)c1=O (stereo partly drawn) [Compound 168b]"
  Ymin (5 hr): "+++ (30% ≤ Ymin < 50%)"
- molecule: "CNC(=O)COc1cc2cc(Nc3nc(N4CCC(CN5CCN(c6cccc7c(C8CCC(=O)NC8=O)nn(C)c67)C[C@@H]5CO)CC4)ncc3Cl)cnc2n(C(C)C)c1=O (stereo partly drawn) [Compound 231b]"
  Ymin (5 hr): "++++ (Ymin < 30%)"
- molecule: "CNC(=O)COc1cc2cc(Nc3nc(N4CC5(CC[C@@H](Nc6cccc7c(C8CCC(=O)NC8=O)nn(C)c67)[C@@H](C)C5)C4)ncc3Cl)cnc2n(C)c1=O (relative stereo) [Compound 159b]"
  Ymin (5 hr): "+++ (30% ≤ Ymin < 50%)"
- molecule: "CNC(=O)COc1cc2cc(Nc3nc(N4CC[C@H](CN5CCC(c6ccc7c(C8CCC(=O)NC8=O)nn(C)c7c6)CC5)[C@H](F)C4)ncc3Cl)cnc2n(C(C)C)c1=O (relative stereo) [Compound 242a]"
  Ymin (5 hr): "++++ (Ymin < 30%)"
- molecule: "CNC(=O)COc1cc2cc(Nc3nc(N4CCN(CC5CCN(c6cccc7c(C8CCC(=O)NC8=O)nn(C)c67)CC5)[C@@H](C(F)(F)F)C4)ncc3Cl)cnc2n(C(C)C)c1=O (stereo partly drawn) [Compound 163a]"
  Ymin (5 hr): "+++ (30% ≤ Ymin < 50%)"

Return reported Ymin (5 hr); argument: CNC(=O)COc1cc2cc(Nc3nc(N4CCN(CC5CCN(c6cccc7c(C8CCC(=O)NC8=O)nn(C)c67)CC5)C[C@@H]4C)ncc3Cl)cnc2n(C(C)C)c1=O (stereo partly drawn) [Compound 168a]
+++ (30% ≤ Ymin < 50%)

Item: CNC(=O)COc1cc2cc(Nc3nc(N4CC[C@@H](CN5CCN(c6cccc7c(C8CCC(=O)NC8=O)nn(C)c67)CC5)[C@H](F)C4)ncc3Cl)cnc2n(C(C)C)c1=O (relative stereo) [Compound 238a]
++++ (Ymin < 30%)
